Taken from patent US20260274887A1.

Give measured solubility at 24 h for each item. Keep answers brief.
# test_method_notes: Solubility of different salt forms in water (HPLC of supernatant)
# test_parameters: 25 °C, water, thermodynamic from solid
# Experimental: The system was stirred in a water bath at 25° C. In addition, the same system was prepared by the same method and stirred at 37° C. After 24 h, the supernatant was taken for HPLC analysis.
Numbers only; they are read as mg/mL.

query: Could you tell me which solubility at 24 h is on file for Cl.[2H]C(C)(C)[C@H](N)C(=O)O[C@@H]1CC[C@@]2(C)[C@@H](CC[C@@H]3[C@@H]2CC[C@]2(C)[C@@H](C(C)=O)CC[C@@H]32)C1 [Hydrochloride] ?
result: 22.7

query: I have this compound here, `[2H]C(C)(C)[C@H](N)C(=O)O[C@@H]1CC[C@@]2(C)[C@@H](CC[C@@H]3[C@@H]2CC[C@]2(C)[C@@H](C(C)=O)CC[C@@H]32)C1` , and I need its recorded solubility at 24 h.
result: 0.01

###

# test_method_notes: Hygroscopic weight gain experiment (Chinese Pharmacopoeia 2020 hygroscopicity guideline)
# Type: physicochemical
# test_parameters: 25° C.±1° C. and 80%±2% RH
parameter_measured: Hygroscopic weight gain (%)
API: value field is a number in %; no unit string.

query: Requested field: Hygroscopic weight gain. Item: C1=Cc2cccc(OC[C@H]3CNCCO3)c2C1.O=S(=O)(O)c1ccccc1 [Benzenesulfonate]
result: 0.2

query: Item under review: CC(=O)O [Acetate] . Reported Hygroscopic weight gain?
result: 0.4

query: Using the record for O=P(O)(O)O.[2H]C(C)(C)C(N)C(=O)OC1CCC2(C)C(CCC3C2CCC2(C)C(C(C)=O)CCC32)C1.[2H]C(C)(C)C(N)C(=O)OC1CCC2(C)C(CCC3C2CCC2(C)C(C(C)=O)CCC32)C1 (stereo not drawn) [Phosphate] , report its Hygroscopic weight gain.
result: 4.9

query: Which value of Hygroscopic weight gain has been reported for O=C(O)CC(O)C(=O)O.[2H]C(C)(C)C(N)C(=O)OC1CCC2(C)C(CCC3C2CCC2(C)C(C(C)=O)CCC32)C1.[2H]C(C)(C)C(N)C(=O)OC1CCC2(C)C(CCC3C2CCC2(C)C(C(C)=O)CCC32)C1 [L-Malate] in the records?
result: 4.0

query: Query: Hygroscopic weight gain; subject: Cc1ccc(S(=O)(=O)O)cc1.[2H]C(C)(C)C(N)C(=O)OC1CCC2(C)C(CCC3C2CCC2(C)C(C(C)=O)CCC32)C1 (stereo not drawn)
result: 0

query: GET /values?readout=Hygroscopic weight gain&item= Cl.[2H]C(C)(C)[C@H](N)C(=O)O[C@@H]1CC[C@@]2(C)[C@@H](CC[C@@H]3[C@@H]2CC[C@]2(C)[C@@H](C(C)=O)CC[C@@H]32)C1 [Hydrochloride]
result: 0.2

###

# test_method_notes: Solubility of different salt forms in water (HPLC of supernatant)
# test_parameters: 37 °C, water, thermodynamic from solid
parameter_measured: solubility at 24 h (mg/mL)
The response must be a number in mg/mL with no trailing unit.

query: Recorded solubility at 24 h of Cl.[2H]C(C)(C)[C@H](N)C(=O)O[C@@H]1CC[C@@]2(C)[C@@H](CC[C@@H]3[C@@H]2CC[C@]2(C)[C@@H](C(C)=O)CC[C@@H]32)C1 [Hydrochloride] , please.
result: 46.4
